Listing of Ki toward 5-hydroxytryptamine receptor 1A (Rattus norvegicus, UniProt P19327), each taken from a published source.
Give the value in µM but do not write µM after it.

Answered cases to consult:
The value of Ki recorded for Fc1ccc(N2CCN(CCC3OCCc4ccccc43)CC2)cc1 (stereo unspecified) when tested on 5-hydroxytryptamine receptor 1A (Rattus norvegicus, UniProt P19327) reads 0.134

The value of Ki recorded for NCCc1ccc(O)c(O)c1 when tested on 5-hydroxytryptamine receptor 1A (Rattus norvegicus, UniProt P19327) reads 0.545

The value of Ki recorded for CCCN(CCC)C[C@H]1C[C@@H]1c1cccc(OC)c1 when tested on 5-hydroxytryptamine receptor 1A (Rattus norvegicus, UniProt P19327) reads 0.31

The value of Ki recorded for CN[C@@H]1CC[C@@H](c2ccc(Cl)c(Cl)c2)c2ccccc21 when tested on 5-hydroxytryptamine receptor 1A (Rattus norvegicus, UniProt P19327) reads 3.66

The value of Ki recorded for O=c1n(Cc2ccc(CNCC3CCc4ccccc4O3)cc2)c(O)c2n1CCC2 (stereo unspecified) when tested on 5-hydroxytryptamine receptor 1A (Rattus norvegicus, UniProt P19327) reads 0.028

***
The value of Ki recorded for c1ccc2c(c1)CC2CCN1CCN(c2cccc3c2OCCO3)CC1 (stereo unspecified) when tested on 5-hydroxytryptamine receptor 1A (Rattus norvegicus, UniProt P19327) reads 0.00061

The value of Ki recorded for CCCN(CCC)C[C@H]1C[C@@H]1c1ccccc1O when tested on 5-hydroxytryptamine receptor 1A (Rattus norvegicus, UniProt P19327) reads 0.752

The value of Ki recorded for c1ccc2c(CCC3CCNCC3)c[nH]c2c1 when tested on 5-hydroxytryptamine receptor 1A (Rattus norvegicus, UniProt P19327) reads 9.12

The value of Ki recorded for O=C(NC1CCN(CCc2ccc(Cl)cc2)C1)C12CC3CC(CC(C3)C1)C2 (stereo unspecified) when tested on 5-hydroxytryptamine receptor 1A (Rattus norvegicus, UniProt P19327) reads 0.077

The value of Ki recorded for O=C1CC2(CCCC2)CC(=O)N1CCNCC1COc2ccccc2O1 (stereo unspecified) when tested on 5-hydroxytryptamine receptor 1A (Rattus norvegicus, UniProt P19327) reads 0.00125
